# target entity: CpLIP2 lipase (Candida parapsilosis)
# Sequence (Q8NIN8 entry or part of it): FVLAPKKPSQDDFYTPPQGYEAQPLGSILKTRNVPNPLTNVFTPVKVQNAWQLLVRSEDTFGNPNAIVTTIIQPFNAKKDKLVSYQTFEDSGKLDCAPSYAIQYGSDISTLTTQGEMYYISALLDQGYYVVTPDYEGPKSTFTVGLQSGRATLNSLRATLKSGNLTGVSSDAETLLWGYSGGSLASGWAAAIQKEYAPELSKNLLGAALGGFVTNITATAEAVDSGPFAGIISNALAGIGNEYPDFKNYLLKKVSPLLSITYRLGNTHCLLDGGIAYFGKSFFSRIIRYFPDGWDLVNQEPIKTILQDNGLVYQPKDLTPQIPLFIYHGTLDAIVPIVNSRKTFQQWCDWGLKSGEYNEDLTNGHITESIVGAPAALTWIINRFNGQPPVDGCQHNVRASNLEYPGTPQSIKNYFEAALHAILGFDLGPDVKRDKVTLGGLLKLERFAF
# test details: Fluorescence resonance energy transfer between CpLIP2 and flavonols (Förster theory); note: values in Å
# Type: binding
# conditions: 2.5 µM, 308 K, pH 7.0
test readout: R0 (Förster distance) (Å)
Field: numeric (Å). Do not append units.

Example entries and their recorded answers appear below.
{"given smiles": "O=c1c(O)c(-c2ccc(O)c(O)c2)oc2cc(O)cc(O)c12", "unit spec": "Å", "R0 (Förster distance)": 36.9}
{"given smiles": "O=c1c(O)c(-c2cc(O)c(O)c(O)c2)oc2cc(O)cc(O)c12", "unit spec": "Å", "R0 (Förster distance)": 38.4}
{"given smiles": "O=c1c(O)c(-c2ccc(O)cc2)oc2cc(O)cc(O)c12", "unit spec": "Å", "R0 (Förster distance)": 36.0}

API: the following record is the query input.
The molecule "O=c1c(O)c(-c2ccccc2)oc2cc(O)cc(O)c12" showed R0 (Förster distance) equal to 23.6
